Where these numbers come from: the pKa sets of Baltruschat and Czodrowski (2020)

assay.context: basic group
recorded.endpoint: pKa
No unit in the answer, please; the number alone is enough.

Asked: Given the entry N#CC(C#N)=NNc1cccc(Cl)c1Cl , report its measured pKa.
Given back: -0.71

----------
assay.context: acidic group
Let's look at some molecules and their measured pKa.
Enter a number only.

{"molecule": "Cc1ccc([P+](c2ccc(C)cc2)(c2ccc(C)cc2)C2c3ccccc3-c3ccccc32)cc1", "pKa": 9.64}
{"molecule": "O=C(O)c1cc2ccccc2[nH]1", "pKa": 3.79}
{"molecule": "Oc1cc(Br)cc(Br)c1", "pKa": 8.01}

Asked: Give the measured pKa of Oc1ccc2ncncc2c1 .
Given back: 8.19

Asked: Please give the measured pKa for this molecule: COC(=O)C1=C(C(=O)OC)CC=C1
Given back: 5

Asked: pKa for CCC1(C)CC(=O)NC1=O (stereo not given) ?
Given back: 9.34

Asked: Given the molecule COc1ccccc1CCC(=O)O , what is its reported pKa?
Given back: 4.8

Asked: State the recorded pKa for this entry: CC([SeH])C[NH3+] (stereo not given)
Given back: 5.19

Asked: For O=C([O-])CC(=O)/C=N/O , what is its reported pKa?
Given back: 8.7

Asked: I'd like to know its pKa. The molecule in question is O=C([O-])c1c(O)ccc2ccccc12
Given back: 10.9

Asked: Item Cc1cccc(Cl)c1O has what recorded pKa?
Given back: 8.7

Asked: Name the recorded pKa for O[n+]1ccc(OCc2ccccc2)cc1 .
Given back: 1.99

Asked: Bench note: what pKa did OB(O)c1ccccc1 show?
Given back: 8.74

Asked: Which pKa is listed for Cc1cc(C)c2cccc(O)c2n1 ?
Given back: 10.6

Asked: Can you share its pKa? I mean this molecule: Sc1cc2ccccc2cn1
Given back: 8.58
